system: WT Nav1.5-α subunits (Homo sapiens, UniProt Q14524)
Construct: expressed in transfected cells; host or cells: HEK293 (transient transfection)
Sequence (Q14524 whole entry): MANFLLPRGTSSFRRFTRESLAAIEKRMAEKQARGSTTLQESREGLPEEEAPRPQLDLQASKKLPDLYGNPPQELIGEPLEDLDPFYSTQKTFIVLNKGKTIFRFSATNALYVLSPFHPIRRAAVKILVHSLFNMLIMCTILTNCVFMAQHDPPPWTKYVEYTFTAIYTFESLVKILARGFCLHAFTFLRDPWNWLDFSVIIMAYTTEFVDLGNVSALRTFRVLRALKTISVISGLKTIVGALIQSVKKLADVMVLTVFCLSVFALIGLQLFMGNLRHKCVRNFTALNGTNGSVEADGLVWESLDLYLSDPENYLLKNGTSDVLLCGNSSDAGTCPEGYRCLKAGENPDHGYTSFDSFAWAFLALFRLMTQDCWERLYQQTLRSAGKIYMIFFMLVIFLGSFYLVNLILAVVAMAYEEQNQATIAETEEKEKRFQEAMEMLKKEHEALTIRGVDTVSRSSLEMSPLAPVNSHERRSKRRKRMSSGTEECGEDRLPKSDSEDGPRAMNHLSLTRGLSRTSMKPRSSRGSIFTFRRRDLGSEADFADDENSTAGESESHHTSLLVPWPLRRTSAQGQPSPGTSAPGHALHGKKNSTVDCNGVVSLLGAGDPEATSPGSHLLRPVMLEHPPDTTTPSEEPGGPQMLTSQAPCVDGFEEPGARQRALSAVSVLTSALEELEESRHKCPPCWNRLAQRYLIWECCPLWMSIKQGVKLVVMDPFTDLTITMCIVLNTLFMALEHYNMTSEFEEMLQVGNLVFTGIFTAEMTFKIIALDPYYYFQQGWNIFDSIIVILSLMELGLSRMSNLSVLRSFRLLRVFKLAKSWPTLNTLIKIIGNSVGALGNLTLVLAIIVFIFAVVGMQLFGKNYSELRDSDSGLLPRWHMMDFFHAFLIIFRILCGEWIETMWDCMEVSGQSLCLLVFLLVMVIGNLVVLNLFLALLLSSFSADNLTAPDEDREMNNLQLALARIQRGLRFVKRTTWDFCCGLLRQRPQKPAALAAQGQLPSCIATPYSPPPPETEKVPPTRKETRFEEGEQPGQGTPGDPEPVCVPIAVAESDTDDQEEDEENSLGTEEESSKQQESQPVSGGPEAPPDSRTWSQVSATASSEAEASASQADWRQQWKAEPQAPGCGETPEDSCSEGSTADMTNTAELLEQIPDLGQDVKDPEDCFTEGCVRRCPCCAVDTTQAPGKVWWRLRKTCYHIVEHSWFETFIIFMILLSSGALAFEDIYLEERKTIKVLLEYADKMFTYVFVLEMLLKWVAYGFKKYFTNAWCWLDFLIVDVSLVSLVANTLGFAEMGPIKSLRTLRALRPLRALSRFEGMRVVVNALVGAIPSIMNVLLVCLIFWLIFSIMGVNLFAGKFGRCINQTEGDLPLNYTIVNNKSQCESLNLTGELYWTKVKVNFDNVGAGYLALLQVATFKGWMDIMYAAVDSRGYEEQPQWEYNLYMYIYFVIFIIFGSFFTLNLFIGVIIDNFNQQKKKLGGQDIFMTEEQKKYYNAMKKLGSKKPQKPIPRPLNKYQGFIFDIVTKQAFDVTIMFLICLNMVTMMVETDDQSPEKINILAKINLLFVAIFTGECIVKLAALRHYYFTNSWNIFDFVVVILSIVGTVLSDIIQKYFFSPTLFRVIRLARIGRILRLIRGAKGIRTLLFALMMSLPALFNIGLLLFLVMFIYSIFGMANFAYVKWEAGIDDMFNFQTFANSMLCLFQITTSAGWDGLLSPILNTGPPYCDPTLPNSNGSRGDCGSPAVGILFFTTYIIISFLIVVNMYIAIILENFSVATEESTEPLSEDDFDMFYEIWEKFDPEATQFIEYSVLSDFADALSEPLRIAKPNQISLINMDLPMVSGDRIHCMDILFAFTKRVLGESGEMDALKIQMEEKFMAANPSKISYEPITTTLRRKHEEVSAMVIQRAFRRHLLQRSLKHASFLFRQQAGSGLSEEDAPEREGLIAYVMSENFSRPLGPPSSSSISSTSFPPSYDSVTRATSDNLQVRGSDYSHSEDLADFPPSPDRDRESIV
assay text: Whole-cell patch clamp, single voltage-pulse protocol (peak INa, conductance, fast inactivation) in transiently transfected HEK293 cells
Format: cell-based
measurement parameters: 50 μM
value type: fast inactivation onset time constant FI −50 mV (ms)
Quick note: give the figure in ms, leave out the unit.

Requested read-out: fast inactivation onset time constant FI −50 mV. Entry: Cc1cc(F)ccc1NS(=O)(=O)c1ccc2c(c1)=NC(=O)N=2 [ZINC64470745]
1.75

Consider next the compound CCc1ccccc1NS(=O)(=O)c1ccc2c(c1)=NC(=O)N=2 [ZINC64470737] in the same way.
1.88

Consider next the compound C=CCNS(=O)(=O)c1ccc2c(c1)=NC(=O)N=2 [ZINC39699427] in the same way.
1.46

Consider next the compound O=C1N=c2ccc(C(=O)NCc3ccco3)cc2=NC1=O [ZINC38767171] in the same way.
1.79

Consider next the compound CN(C)[C@@H](CNC(=O)c1ccc2c(c1)=NC(=O)C(=O)N=2)c1ccco1 [ZINC40014265] in the same way.
2.18

Consider next the compound COc1cccc(NS(=O)(=O)c2ccc3c(c2)=NC(=O)N=3)c1 [ZINC64470729] in the same way.
1.97
